Please go through the items and note down their 8OG:A repair function score.
B1: library; numbered along this chain (parent)
chain: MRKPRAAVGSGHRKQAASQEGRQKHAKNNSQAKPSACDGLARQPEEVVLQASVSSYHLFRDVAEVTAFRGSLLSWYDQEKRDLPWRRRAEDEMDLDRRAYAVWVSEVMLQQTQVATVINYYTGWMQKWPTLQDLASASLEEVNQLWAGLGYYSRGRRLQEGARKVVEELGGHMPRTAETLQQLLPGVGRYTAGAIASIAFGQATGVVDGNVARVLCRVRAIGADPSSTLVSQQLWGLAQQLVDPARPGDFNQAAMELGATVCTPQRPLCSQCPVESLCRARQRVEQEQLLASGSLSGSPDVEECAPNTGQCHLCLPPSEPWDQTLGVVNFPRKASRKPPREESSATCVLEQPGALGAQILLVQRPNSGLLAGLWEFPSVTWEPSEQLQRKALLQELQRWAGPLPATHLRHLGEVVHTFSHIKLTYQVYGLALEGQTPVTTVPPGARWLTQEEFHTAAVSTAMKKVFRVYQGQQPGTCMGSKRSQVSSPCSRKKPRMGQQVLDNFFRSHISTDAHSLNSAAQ

variants of: B1; assay: 8OG:A repair function score (normalized; synonymous = 0, nonsense = -1) (normalized log-likelihood score); higher = more repair activity (WT-like); conditions: with 8OG:A DNA repair reporter (GFP) in HEK-293 MUTYH KO cells;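 note: cells sorted at 72 h after reporter transfection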
Kindly provide the number alone.

Qu. Entry under review: P377H . Reported 8OG:A repair function score?
Ans. -1.31

Qu. Entry under review: L229S . Reported 8OG:A repair function score?
Ans. 0.0557

Qu. Entry under review: E141V . Reported 8OG:A repair function score?
Ans. -0.27

Qu. Entry under review: G293V . Reported 8OG:A repair function score?
Ans. -0.0545

Qu. Entry under review: L73C . Reported 8OG:A repair function score?
Ans. -0.0699

Qu. Entry under review: I221D . Reported 8OG:A repair function score?
Ans. -1.02

Qu. Entry under review: W103R . Reported 8OG:A repair function score?
Ans. -1.22

Qu. Entry under review: P402A . Reported 8OG:A repair function score?
Ans. -0.0823

Qu. Entry under review: R86L . Reported 8OG:A repair function score?
Ans. -0.926

Qu. Entry under review: D249I . Reported 8OG:A repair function score?
Ans. -0.596

Qu. Entry under review: P316H . Reported 8OG:A repair function score?
Ans. -0.123

Qu. Entry under review: G368R . Reported 8OG:A repair function score?
Ans. -0.193

Qu. Entry under review: E413P . Reported 8OG:A repair function score?
Ans. -0.386

Qu. Entry under review: N119T . Reported 8OG:A repair function score?
Ans. -0.0798

Qu. Entry under review: L83G . Reported 8OG:A repair function score?
Ans. -0.971

Qu. Entry under review: P84Y . Reported 8OG:A repair function score?
Ans. -0.697

Qu. Entry under review: T476Q . Reported 8OG:A repair function score?
Ans. -0.0039

Qu. Entry under review: E106I . Reported 8OG:A repair function score?
Ans. -1.13

Qu. Entry under review: T436D . Reported 8OG:A repair function score?
Ans. 0.113

Qu. Entry under review: A137Y . Reported 8OG:A repair function score?
Ans. -0.928

Qu. Entry under review: V211F . Reported 8OG:A repair function score?
Ans. -0.4

Qu. Entry under review: Q182I . Reported 8OG:A repair function score?
Ans. -0.0148
